Measured Tg_72h_%Growth_Rep2 accompanies every entry in the list below.
- Test system: T. gondii RH strain (RH-Tub-eYFP) tachyzoites
- measurement-description: microbe, parasite or virus in culture
- Type: cell-based, Toxoplasma gondii
- experimental-context: library screen at 2 μg/mL, 72 h, % growth, replicate 2

| compound | assay-system | Tg_72h_%Growth_Rep2 |
| --- | --- | --- |
| C[C@H]1OC(=O)C=C[C@@H](O)[C@@H](O)CCCCCCCC[C@@H]1O [Berkeleylactone F] | T. gondii RH strain (RH-Tub-eYFP) tachyzoites | 88.17% |
| CO[C@H]1C[C@H](O[C@@H]2/C(C)=C/C[C@@H]3C[C@@H](C[C@]4(C=C[C@H](C)[C@@H](C5CCCCC5)O4)O3)OC(=O)[C@@H]3C=C(C)[C@@H](O)[C@H]4OC/C(=C\C=C\[C@@H]2C)[C@]43O)O[C@@H](C)[C@@H]1O [Doramectin monosaccharide] | T. gondii RH strain (RH-Tub-eYFP) tachyzoites | 107.16% |
| CC[C@H]1OC(=O)[C@H](C)[C@@H](O[C@H]2C[C@@](C)(OC)[C@@H](O)[C@H](C)O2)[C@H](C)[C@@H](O[C@@H]2O[C@H](C)C[C@H](N(C)C)[C@H]2O)[C@@]2(C)C[C@@H](C)[C@@]3(O[C@@]1(C)[C@H](O)[C@H]3C)O2 [Anhydroerythromycin A] | T. gondii RH strain (RH-Tub-eYFP) tachyzoites | 98.86% |
| CN1C(=O)c2ccccc2-n2c(nc3ccccc3c2=O)[C@@H]1Cc1ccccc1 [Benzomalvin A] | T. gondii RH strain (RH-Tub-eYFP) tachyzoites | 90.69% |
| CC[C@H]1OC(=O)[C@H](C)[C@@H](O[C@H]2C[C@@](C)(OC)[C@@H](O)[C@H](C)O2)[C@H](C)[C@@H](O[C@@H]2O[C@H](C)C[C@H](N(C)C)[C@H]2O)[C@@]2(C)CC(C)=C(O2)[C@H](C)[C@@H](O)[C@]1(C)O [Erythromycin A enol ether] | T. gondii RH strain (RH-Tub-eYFP) tachyzoites | 86.46% |
| C/C=C(/C)c1cc(O)c(C)c2c1Oc1c(C)c(O)cc(/C(C)=C\C)c1C(=O)O2 [Folipastatin] | T. gondii RH strain (RH-Tub-eYFP) tachyzoites | 93.99% |
| CN(C)[C@H]1C(O)=C(C(N)=O)C(=O)[C@@]2(O)C(O)=C3C(=O)c4c(O)cccc4[C@@](C)(O)[C@H]3[C@H](O)[C@@H]12 [Epioxytetracycline] | T. gondii RH strain (RH-Tub-eYFP) tachyzoites | 107.04% |
| CC(/C=C/C1CC=CC(=O)O1)=C\C(C)C/C=C/C(C)=C/C(C)C(=O)C(C)C(O)C(C)C/C(C)=C/C(=O)O (centres unmarked) [Anguinomycin A] | T. gondii RH strain (RH-Tub-eYFP) tachyzoites | 87.77% |
| CC(=O)O[C@H]1CCC2(C)C3=C(CCC2C1(C)C)[C@@]1(C)CC[C@@H](C(C)CCC=C(C)C)[C@]1(C)CC3 (some centres unmarked) [Euphol acetate] | T. gondii RH strain (RH-Tub-eYFP) tachyzoites | 105.35% |
| COC1/C=C\C=C(/C)C(=O)NC2=CC(=O)C(NCCN(C)C)=C(C[C@@H](C)C[C@H](OC)[C@H](O)[C@@H](C)/C=C(\C)[C@@H]1OC(N)=O)C2=O (some centres unmarked) | T. gondii RH strain (RH-Tub-eYFP) tachyzoites | -0.16% |
| CCc1cc(O)cc(O)c1C(=O)O[C@H]1[C@H](O)[C@H](OC)[C@H](OC/C2=C\C=C\C[C@H](O)/C(C)=C/[C@H](CC)[C@@H](O[C@@H]3OC(C)(C)[C@@H](OC(=O)C(C)C)[C@H](O)[C@@H]3O)/C(C)=C/C(C)=C/C[C@@H]([C@@H](C)O)OC2=O)O[C@@H]1C [Didechlorofidaxomicin] | T. gondii RH strain (RH-Tub-eYFP) tachyzoites | 90.14% |

====

- Test system: P. falciparum 3D7 parasites
- measurement-description: P. falciparum growth inhibition assay, 2-cycle (120 h treatment), delayed-death screen and dose-response
- Type: cell-based, Plasmodium falciparum
- experimental-context: P. falciparum 3D7, 120 h, parasite screen at 2 μg/mL, % growth, replicate 2
Where a SMILES comes first, the peptide text is derived from it. Bridges are numbered along the chain shown (N, C = ends). The star is where a group is joined. X2 = CCCCCCCCCCCC(O)CC(=O)*
measurement-name: Pf_120h_%Growth_Rep2 (%)

| compound | measurement-name | unit-tag | value |
| --- | --- | --- | --- |
| CCC1OC2(CCC1C)CC1CC(CC=C(C)CC(C)C=CC=C3COC4C(O)C(C)=CC(C(=O)O1)C34O)O2 (stereo not shown) | Pf_120h_%Growth_Rep2 | % | 50.00 |
| COc1cc(O)c2c(c1)/C=C/C[C@H](O)[C@H](O)C(=O)/C=C/C[C@H](C)OC2=O | Pf_120h_%Growth_Rep2 | % | 72.01 |
| C[C@@H]1C[C@H]2CC[C@H](O2)[C@H](C)C(=O)O[C@@H](C)C[C@@H]2CC[C@@H](O2)[C@@H](C)C(=O)O[C@H](C)C[C@H]2CC[C@@H](O2)[C@H](C)C(=O)O[C@@H](C)C[C@@H]2CC[C@@H](O2)[C@@H](C)C(=O)O1 | Pf_120h_%Growth_Rep2 | % | 11.45 |
| CN(C)[C@@H]1C(=O)C(C(=O)NCN2CCN(CCO)CC2)=C(O)[C@@]2(O)C(=O)C3=C(O)c4c(O)cccc4[C@@](C)(O)[C@H]3C[C@@H]12 | Pf_120h_%Growth_Rep2 | % | 132.29 |
| Cc1cccc(O)c1C(=O)O | Pf_120h_%Growth_Rep2 | % | 97.37 |
| COc1ccc2c(c1OC)C[N+]1(C)CCc3cc4c(cc3C1C2)OCO4.[I-] (stereo not shown) | Pf_120h_%Growth_Rep2 | % | 17.95 |
| CC=C(C)c1c(Cl)c(O)c(C)c2c1Oc1c(Cl)c(O)c(Cl)c(C)c1C(=O)O2 | Pf_120h_%Growth_Rep2 | % | 135.76 |
| CN(C)[C@@H]1C(O)=C(C(N)=O)C(=O)[C@@]2(O)C(O)=C3C(=O)c4c(O)cccc4[C@@](C)(O)[C@H]3[C@H](O)[C@@H]12 | Pf_120h_%Growth_Rep2 | % | 14.90 |
| OC[C@H]1O[C@@H](n2cnc3c2N=CNC[C@H]3O)C[C@@H]1O | Pf_120h_%Growth_Rep2 | % | 140.11 |
| CC(C)=CCCC(C)C1CCC2(C)CC3C(C(=O)CC3(C)O)C(C=O)=CCC12 (stereo not shown) | Pf_120h_%Growth_Rep2 | % | 138.56 |
| COc1ccc2c(c1OC)C(=O)O[C@@H]2[C@H]1c2c(cc3c(c2OC)OCO3)CCN1C | Pf_120h_%Growth_Rep2 | % | 79.12 |
| C[C@@H]1Cc2c(Cl)cc(C(=O)N[C@@H](Cc3ccccc3)C(=O)O)c(O)c2C(=O)O1 | Pf_120h_%Growth_Rep2 | % | 136.40 |
| CCCCCCCCCCCC(O)CC(=O)NC(CC(C)C)C(=O)NC(CCC(=O)O)C(=O)NC1C(=O)NC(C(C)C)C(=O)NC(CC(C)C)C(=O)NC(CO)C(=O)NC(CC(C)C)C(=O)NC(CC(C)C)C(=O)NC(CO)C(=O)NC(C(C)C)C(=O)OC1C (stereo not shown) [BIA-O1431] (X2-LETVLSLLSV; ester 3-C; configuration not given here) | Pf_120h_%Growth_Rep2 | % | 109.58 |

====

Recorded measurements of activity at 2 µg/mL, one per entry
- Tested on: P. falciparum 3D7 parasites
- measurement-description: P. falciparum growth inhibition assay, 2-cycle (120 h treatment), delayed-death screen and dose-response
- Format: cell-based, Plasmodium falciparum
- experimental-context: Plasmodium falciparum, 3D7; P. falciparum, 120 h, screen at 2 μg/mL, replicate 1; read-out: Pf_120h_%Growth_Rep1
measurement-name: activity at 2 µg/mL (%)

| molecule | value |
| --- | --- |
| CC[C@H]1OC(=O)C[C@@H](O)[C@H](C)[C@@H](O[C@@H]2O[C@H](C)[C@@H](O[C@H]3C[C@@](C)(O)[C@@H](O)[C@H](C)O3)[C@H](N(C)C)[C@H]2O)[C@@H](CC=O)C[C@@H](C)C(=O)/C=C/C(C)=C/[C@@H]1CO[C@@H]1O[C@H](C)[C@@H](O)[C@@H](OC)[C@H]1OC [Tylosin, reference compound] | 31.5 |
| CC(=O)c1c(O)c(C)c(O)c2c1OC1=CC(=O)C(C(C)=O)C(=O)C12C (centres unmarked) [Usnic acid] | 101 |
